target-under-test: Recombinant human glycogen synthase kinase 3 beta (Homo sapiens)
test-name: GSK-3 beta inhibition assay (33P-ATP, GS-2 peptide)
Type: biochemical
conditions-used: 0.5 h; compound at 50 μM; percentage of the enzyme activity (remaining); read-out: % Act. GSK-3 beta
Each record is given met if its reported remaining activity at 50 µM is strictly below 6%. Records at or above 6% are given not met.

[[record]]
molecule = "COCOc1ccc(C=O)cc1C/C=C(\\C)CCC=C(C)C [Compound 8]"
class = "met"

[[record]]
molecule = "CC(=O)Oc1ccc(C(=O)O)cc1C/C=C(\\C)CC/C=C(\\C)CC/C=C(\\C)CCC=C(C)C [Compound 19]"
class = "met"

[[record]]
molecule = "CC(C)=CCC/C(C)=C/CC/C(C)=C/Cc1cc(C=O)ccc1O [Compound 12]"
class = "met"

[[record]]
molecule = "CC(C)=CCC/C(C)=C/CC/C(C)=C/CC/C(C)=C/Cc1cc(C(=O)OCc2ccccc2)ccc1OCc1ccccc1 [Compound 17]"
class = "not met"

[[record]]
molecule = "CC(C)=CCC/C(C)=C/Cc1cc(C=O)ccc1O [Compound 11]"
class = "met"

[[record]]
molecule = "COCOC(=O)c1ccc(OC(C)=O)c(C/C=C(\\C)CC/C=C(\\C)CC/C=C(\\C)CCC=C(C)C)c1 [Compound 20]"
class = "not met"

[[record]]
molecule = "COCOc1ccc(C=O)cc1C/C=C(\\C)CC/C=C(\\C)CCC=C(C)C [Compound 9]"
class = "met"

[[record]]
molecule = "COCOc1ccc(C(=O)O)cc1C/C=C(\\C)CCC=C(C)C [Compound 21]"
class = "not met"

[[record]]
molecule = "CC(C)=CCC/C(C)=C/CC/C(C)=C/CC/C(C)=C/Cc1cc(C(=O)OCc2ccccc2)ccc1O [Compound 24]"
class = "not met"

[[record]]
molecule = "CC(C)=CCC/C(C)=C/CC/C(C)=C/Cc1cc(C(=O)O)ccc1OCc1ccccc1 [Compound 26]"
class = "not met"

[[record]]
molecule = "CC(C)=CCC/C(C)=C/CC/C(C)=C/Cc1cc(C(=O)O)ccc1O [Compound 15]"
class = "met"

[[record]]
molecule = "CC(C)=CCc1cc(C(=O)O)ccc1O [Compound 6]"
class = "not met"


---

target-under-test: Recombinant human glycogen synthase kinase 3 beta (Homo sapiens, UniProt P49841)
Sequence (P49841 whole entry): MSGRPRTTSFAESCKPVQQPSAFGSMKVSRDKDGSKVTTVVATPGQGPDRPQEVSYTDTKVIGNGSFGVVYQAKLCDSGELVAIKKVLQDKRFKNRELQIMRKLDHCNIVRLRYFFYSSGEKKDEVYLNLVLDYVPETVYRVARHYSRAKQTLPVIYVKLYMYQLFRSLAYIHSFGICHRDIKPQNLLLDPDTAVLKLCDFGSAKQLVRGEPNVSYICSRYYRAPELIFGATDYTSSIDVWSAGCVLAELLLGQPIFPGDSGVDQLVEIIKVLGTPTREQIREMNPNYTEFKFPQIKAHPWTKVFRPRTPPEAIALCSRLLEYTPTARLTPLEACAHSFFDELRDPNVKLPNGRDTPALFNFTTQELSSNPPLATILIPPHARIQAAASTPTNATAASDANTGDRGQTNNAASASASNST
test-name: GSK-3 beta inhibition assay (33P-ATP, GS-2 peptide)
observation-type: IC50 (µM)

[[record]]
smiles_notation = "CC(C)=CCC/C(C)=C/CC/C(C)=C/Cc1cc(C=O)ccc1O"
units_text = "µM"
reported = 7.87

[[record]]
smiles_notation = "COCOC(=O)c1ccc(O)c(C/C=C(\\C)CC/C=C(\\C)CC/C=C(\\C)CCC=C(C)C)c1"
units_text = "µM"
reported = 22

[[record]]
smiles_notation = "CC(=O)Oc1ccc(C(=O)O)cc1C/C=C(\\C)CC/C=C(\\C)CC/C=C(\\C)CCC=C(C)C"
units_text = "µM"
reported = 2.77

[[record]]
smiles_notation = "CC(C)=CCC/C(C)=C/CC/C(C)=C/CC/C(C)=C/Cc1cc(O)ccc1O"
units_text = "µM"
reported = 12.5


---

target-under-test: Recombinant human glycogen synthase kinase 3 beta (Homo sapiens, UniProt P49841)
test-name: GSK-3 beta inhibition assay (33P-ATP, GS-2 peptide)
Type: biochemical
conditions-used: 0.5 h; compound at 50 μM; percentage of the enzyme activity (remaining); read-out: % Act. GSK-3 beta
Each record is given yes (1) if its reported remaining activity at 50 µM is strictly below 5%. Records at or above 5% are given no (0).

[[record]]
smiles_notation = "CC(C)=CCC/C(C)=C/CC/C(C)=C/CC/C(C)=C/CC/C(C)=C/Cc1cc(O)ccc1O"
class = "no (0)"

[[record]]
smiles_notation = "CC(C)=CCC/C(C)=C/CC/C(C)=C/CC/C(C)=C/Cc1cc(C=O)ccc1O"
class = "yes (1)"

[[record]]
smiles_notation = "C/C(=C\\CC/C(C)=C/CC/C(C)=C/Cc1cc(C(=O)O)ccc1O)C/C=C/C(C)(C)O"
class = "yes (1)"

[[record]]
smiles_notation = "COCOc1ccc(C(=O)O)cc1C/C=C(\\C)CC/C=C(\\C)CCC=C(C)C"
class = "yes (1)"

[[record]]
smiles_notation = "CCNC(=O)c1ccc(O)c(C/C=C(\\C)CC/C=C(\\C)CC/C=C(\\C)CCC=C(C)C)c1"
class = "no (0)"

[[record]]
smiles_notation = "CC(C)=CCC/C(C)=C/Cc1cc(C(=O)O)ccc1O"
class = "no (0)"

[[record]]
smiles_notation = "COCOC(=O)c1ccc(O)c(C/C=C(\\C)CC/C=C(\\C)CC/C=C(\\C)CCC=C(C)C)c1"
class = "yes (1)"


---

target-under-test: rhBACE-1 β-Secretase recombinant human (Homo sapiens, UniProt P56817)
Construct: purchased R&D Systems 931-AS
Sequence (P56817 46-457 limits assumed): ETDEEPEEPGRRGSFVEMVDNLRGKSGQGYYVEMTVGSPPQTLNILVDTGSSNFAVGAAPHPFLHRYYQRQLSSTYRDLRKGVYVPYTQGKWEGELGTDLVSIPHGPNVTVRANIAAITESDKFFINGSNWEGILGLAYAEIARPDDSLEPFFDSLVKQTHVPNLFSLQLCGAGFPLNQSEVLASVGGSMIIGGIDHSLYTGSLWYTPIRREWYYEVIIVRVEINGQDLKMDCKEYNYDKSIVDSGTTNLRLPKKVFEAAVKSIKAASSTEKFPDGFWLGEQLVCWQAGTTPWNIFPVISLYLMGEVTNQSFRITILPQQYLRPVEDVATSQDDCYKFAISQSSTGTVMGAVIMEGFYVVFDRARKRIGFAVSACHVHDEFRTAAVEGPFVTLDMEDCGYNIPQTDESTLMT
test-name: BACE assay (FRET, fluorogenic peptide substrate)
Format: biochemical
From the text: The aim of this assay is to determine if a compound, either synthetic or of marine origin, is a BACE-1 inhibitor, to avoid the formation of Aβ. This assay is based on FRET technology (Fluorescence Resonance Energy Transfer). […] When a substrate peptide cleavage occurs, the energy balance is broken and all the donor fluorescence can be observed. The increase in fluorescence is linearly related to the rate of proteolysis (Gordon, G W et al., 1998). […]
pIC50: −log10 of the molar value.
observation-type: pIC50

[[record]]
compound = "CC(=O)Oc1ccc(C(=O)O)cc1C/C=C(\\C)CC/C=C(\\C)CC/C=C(\\C)CCC=C(C)C [Compound 19]"
reported = 4.69


---

target-under-test: Recombinant human glycogen synthase kinase 3 beta (Homo sapiens)
test-name: GSK-3 beta inhibition assay (33P-ATP, GS-2 peptide)
Assay type: biochemical
conditions-used: 0.5 h; compound at 25 μM; percentage of the enzyme activity (remaining); read-out: % Act. GSK-3 beta
Each record is given label 1 if its reported remaining activity at 25 µM is strictly below 40%. Records at or above 40% are given label 0.

[[record]]
smiles_notation = "CC(C)=CCC/C(C)=C/CC/C(C)=C/CC/C(C)=C/Cc1cc(C(=O)OCc2ccccc2)ccc1OCc1ccccc1"
class = "label 0"

[[record]]
smiles_notation = "CC(C)=CCC/C(C)=C/CC/C(C)=C/CC/C(C)=C/Cc1cc(O)ccc1O"
class = "label 1"

[[record]]
smiles_notation = "COCOc1ccc(C=O)cc1C/C=C(\\C)CCC=C(C)C"
class = "label 1"

[[record]]
smiles_notation = "COCOc1ccc(C(=O)O)cc1C/C=C(\\C)CC/C=C(\\C)CCC=C(C)C"
class = "label 1"

[[record]]
smiles_notation = "CC(C)=CCc1cc(C(=O)O)ccc1O"
class = "label 0"

[[record]]
smiles_notation = "CC(C)=CCC/C(C)=C/CC/C(C)=C/CC/C(C)=C/Cc1cc(C(=O)O)ccc1O"
class = "label 1"


---

target-under-test: rhBACE-1 β-Secretase recombinant human (Homo sapiens, UniProt P56817)
Construct: purchased R&D Systems 931-AS
test-name: BACE assay (FRET, fluorogenic peptide substrate)
Assay type: biochemical
conditions-used: compound at 10 μM; percentage of the enzyme activity (remaining)
observation-type: % BACE Activity (%)

[[record]]
molecule = "CC(C)=CCC/C(C)=C/CC/C(C)=C/CC/C(C)=C/Cc1cc(C(=O)OCc2ccccc2)ccc1O [Compound 24]"
observation_type = "% BACE Activity"
units_text = "%"
reported = 100

[[record]]
molecule = "CC(C)=CCC/C(C)=C/Cc1cc(C=O)ccc1O [Compound 11]"
observation_type = "% BACE Activity"
units_text = "%"
reported = 44

[[record]]
molecule = "COCOC(=O)c1ccc(O)c(C/C=C(\\C)CC/C=C(\\C)CC/C=C(\\C)CCC=C(C)C)c1 [Compound 25]"
observation_type = "% BACE Activity"
units_text = "%"
reported = 100

[[record]]
molecule = "CC(C)=CCC/C(C)=C/CC/C(C)=C/CC/C(C)=C/Cc1cc(O)ccc1O [Compound 2]"
observation_type = "% BACE Activity"
units_text = "%"
reported = 13

[[record]]
molecule = "CC(C)=CCc1cc(C(=O)O)ccc1O [Compound 6]"
observation_type = "% BACE Activity"
units_text = "%"
reported = 100

[[record]]
molecule = "COCOc1ccc(C=O)cc1C/C=C(\\C)CC/C=C(\\C)CCC=C(C)C [Compound 9]"
observation_type = "% BACE Activity"
units_text = "%"
reported = 60

[[record]]
molecule = "COCOC(=O)c1ccc(OC(C)=O)c(C/C=C(\\C)CC/C=C(\\C)CC/C=C(\\C)CCC=C(C)C)c1 [Compound 20]"
observation_type = "% BACE Activity"
units_text = "%"
reported = 100

[[record]]
molecule = "CC(C)=CCC/C(C)=C/CC/C(C)=C/CC/C(C)=C/Cc1cc(C=O)ccc1O [Compound 13]"
observation_type = "% BACE Activity"
units_text = "%"
reported = 88

